Target: UniProt:P16435
Assay: Substrate activity at recombinant human CPR expressed in baculovirus infected insect cells assessed as compound reduction rate by measuring NADPH consumption per umol of enzyme preincubated for 3 mins followed by NADPH addition measured for 5 mins at 2 sec time interval by UV-Visible spectroscopic method
Type: ADME
measurement-kind: Activity (µmol/min)
Write down the numeric answer in µmol/min and omit the unit.

Observe how each entry below is paired with its result.
* CC1(C)CCC2=C(O1)C(=O)c1ccccc1C2=O | 1010
* Cc1coc2c1C(=O)C(=O)c1c(C)ccc(C)c1-2 | 672
* COc1cccc2c1C1=C(C(=O)C2=O)C(C)(C)C(C)O1 (stereo not given) | 764
* Cc1ccc2c(c1)C(=O)C(=O)c1c(C)coc1-2 | 891
* Cc1ccc2c(c1)-c1occ(C)c1C(=O)C2=O | 835
* CC1(C)CC2=C(O1)c1ccccc1C(=O)C2=O | 1427
* CC1CC2=C(O1)c1ccccc1C(=O)C2=O (stereo not given) | 905
* CCc1coc2c1C(=O)C(=O)c1cc(C)c(C)cc1-2 | 818

Requested read-out: Activity. Entry: CC1(C)CCC2=C(O1)c1ccccc1C(=O)C2=O 923

Param item = CCc1coc2c1C(=O)C(=O)c1cc(C)ccc1-2 ; retrieve measured Activity. 796

Quick one: Activity for Cc1cc2c(cc1C)-c1occc1C(=O)C2=O ? 400

Give its Activity value. Item: CCc1coc2c1C(=O)C(=O)c1ccccc1-2 1382

Using the record for CC1OC2=C(C(=O)C(=O)c3ccccc32)C1(C)C (stereo not given) , report its Activity. 1437

###

Measured Activity values are reported for all entries that follow.
Target: NADPH--cytochrome P450 reductase (Homo sapiens, UniProt P16435)
Sequence (P16435 whole entry): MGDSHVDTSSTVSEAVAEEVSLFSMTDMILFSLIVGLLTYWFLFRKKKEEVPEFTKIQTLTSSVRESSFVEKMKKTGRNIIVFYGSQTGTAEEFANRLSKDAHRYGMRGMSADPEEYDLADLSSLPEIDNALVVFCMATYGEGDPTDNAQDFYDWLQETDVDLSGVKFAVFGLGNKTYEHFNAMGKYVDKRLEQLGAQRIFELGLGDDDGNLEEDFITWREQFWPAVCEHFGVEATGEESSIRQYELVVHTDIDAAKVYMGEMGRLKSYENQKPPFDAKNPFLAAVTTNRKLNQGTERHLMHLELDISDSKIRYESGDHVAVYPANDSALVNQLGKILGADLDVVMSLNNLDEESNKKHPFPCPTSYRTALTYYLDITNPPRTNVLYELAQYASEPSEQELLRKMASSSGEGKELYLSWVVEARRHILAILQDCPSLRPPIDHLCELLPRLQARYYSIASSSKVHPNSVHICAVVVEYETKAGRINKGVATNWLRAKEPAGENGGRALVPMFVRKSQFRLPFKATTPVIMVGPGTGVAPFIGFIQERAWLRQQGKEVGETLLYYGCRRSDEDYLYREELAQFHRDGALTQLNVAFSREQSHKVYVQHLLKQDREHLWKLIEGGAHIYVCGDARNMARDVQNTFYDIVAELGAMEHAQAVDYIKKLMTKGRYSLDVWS
Test: Substrate activity at recombinant human CPR expressed in baculovirus infected insect cells assessed as compound reduction rate by measuring NADPH consumption per umol of enzyme preincubated for 3 mins followed by NADPH addition measured for 5 mins at 2 sec time interval by UV-Visible spectroscopic method
Assay type: ADME
Just the number please, in µmol/min, no unit attached.

Below: 4 compounds and their reported Activity.
- O=C1C(=O)c2ccoc2-c2ccccc21: 1221
- Cc1cc(=O)n(C)c2c1C(=O)C1=C(C=CC(C)(C)O1)C2=O: 1422
- CC1OC2=C(C(=O)c3ccccc3C2=O)C1(C)C (configuration not stated): 1011
- CCc1coc2c1C(=O)C(=O)c1ccc(C)cc1-2: 1014

Quick one: Activity of COc1ccc2c(c1)C(=O)C(=O)C1=C2OC(C)C1(C)C (configuration not stated) ? 782

Can you look up the measured Activity of CC1(C)C=CC2=C(O1)C(=O)c1ccccc1C2=O [DEHYDRO-ALPHA-LAPACHONE] for me? 852

I would be grateful if you could share the reported Activity for CC1OC2=C(C(=O)C(=O)c3ccccc32)C1C (configuration not stated) . 659

Recorded values, source ChEMBL document CHEMBL4007423.
